# Assay Info: self-splicing fitness, log relative to wild type (ln ratio); higher = more splicing; Tetrahymena group I intron in knt gene, E. coli kanamycin selection, DiMSum; sequences stand for … in CUCUCU…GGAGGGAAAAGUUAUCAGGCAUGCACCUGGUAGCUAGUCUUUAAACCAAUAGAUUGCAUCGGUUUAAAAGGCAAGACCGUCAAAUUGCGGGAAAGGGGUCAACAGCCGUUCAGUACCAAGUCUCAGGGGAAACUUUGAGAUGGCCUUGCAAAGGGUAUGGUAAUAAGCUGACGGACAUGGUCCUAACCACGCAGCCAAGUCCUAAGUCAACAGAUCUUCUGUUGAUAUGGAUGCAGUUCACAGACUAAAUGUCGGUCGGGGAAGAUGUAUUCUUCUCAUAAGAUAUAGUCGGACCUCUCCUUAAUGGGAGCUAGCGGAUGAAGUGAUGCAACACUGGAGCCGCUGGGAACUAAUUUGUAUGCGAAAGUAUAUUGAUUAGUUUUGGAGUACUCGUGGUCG;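 also: selection with 25 µg/mL kanamycin versus none on LB agar overnight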
# Run Conditions: 30 °C

{"Input Sequence": "CGGCAGCAAUAUUACGGUGG", "self-splicing fitness (ln)": -1.41}
{"Input Sequence": "GAACAGCAAUAUUACGGCGC", "self-splicing fitness (ln)": -0.147}
{"Input Sequence": "UAGUAGCAAUAUUACGUGCC", "self-splicing fitness (ln)": -2.98}
{"Input Sequence": "GCAUAGCAAUAUUACGAGAC", "self-splicing fitness (ln)": -2.7}
{"Input Sequence": "AUGCAGCAAUAUUACGUCGU", "self-splicing fitness (ln)": -0.894}
{"Input Sequence": "CGUAAGCAAUAUUACGCUCG", "self-splicing fitness (ln)": -1.8}
{"Input Sequence": "CCCCAGCAAUAUUACGUAUA", "self-splicing fitness (ln)": -4.57}
{"Input Sequence": "UACCAGCAAUAUUACGACUC", "self-splicing fitness (ln)": -2.5}

----------
# Assay Info: self-splicing fitness, log relative to wild type (ln ratio); higher = more splicing; Tetrahymena group I intron in knt gene, E. coli kanamycin selection, DiMSum; sequences stand for … in CUCUCU…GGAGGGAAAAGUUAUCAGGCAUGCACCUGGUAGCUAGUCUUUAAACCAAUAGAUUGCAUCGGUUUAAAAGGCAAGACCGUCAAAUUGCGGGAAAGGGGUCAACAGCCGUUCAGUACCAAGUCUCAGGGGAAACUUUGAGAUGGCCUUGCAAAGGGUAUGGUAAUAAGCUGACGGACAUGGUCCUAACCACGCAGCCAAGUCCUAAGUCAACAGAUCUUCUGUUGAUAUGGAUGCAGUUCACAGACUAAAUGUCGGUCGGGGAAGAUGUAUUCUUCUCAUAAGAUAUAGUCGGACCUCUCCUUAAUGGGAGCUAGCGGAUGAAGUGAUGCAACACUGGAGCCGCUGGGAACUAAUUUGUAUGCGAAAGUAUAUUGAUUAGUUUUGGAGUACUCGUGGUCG
# Run Conditions: 30 °C
Note: every record was labeled by where its self-splicing fitness (ln) sits among low band (below -3), middle band (-3 to below -2), high band (-2 or more)

{"Input Sequence": "CAAGAGCAAUAUUACGCUCG", "Category Label": "middle band"}
{"Input Sequence": "UCUGAGCAAUAUUACGCUGA", "Category Label": "high band"}
{"Input Sequence": "AAACAGCAAUAUUACGUAAC", "Category Label": "low band"}
{"Input Sequence": "GACAAGCAAUAUUACGUAUA", "Category Label": "high band"}
{"Input Sequence": "GCCUAGCAAUAUUACGAACU", "Category Label": "high band"}
{"Input Sequence": "CAUGAGCAAUAUUACGUGAG", "Category Label": "low band"}
{"Input Sequence": "CAGGAGCAAUAUUACGGUGC", "Category Label": "middle band"}
{"Input Sequence": "GGGGAGCAAUAUUACGCUAU", "Category Label": "low band"}
{"Input Sequence": "UAAGAGCAAUAUUACGUACU", "Category Label": "middle band"}
{"Input Sequence": "CGGGAGCAAUAUUACGAAUA", "Category Label": "middle band"}
{"Input Sequence": "CGUGAGCAAUAUUACGUCUC", "Category Label": "low band"}
{"Input Sequence": "AACAAGCAAUAUUACGAACU", "Category Label": "high band"}
{"Input Sequence": "AAGAAGCAAUAUUACGAGGG", "Category Label": "low band"}
{"Input Sequence": "ACAUAGCAAUAUUACGACUA", "Category Label": "high band"}
{"Input Sequence": "GACAAGCAAUAUUACGACGU", "Category Label": "high band"}
{"Input Sequence": "CAACAGCAAUAUUACGAAUC", "Category Label": "low band"}
{"Input Sequence": "AGUCAGCAAUAUUACGUUUA", "Category Label": "middle band"}
{"Input Sequence": "UCAAAGCAAUAUUACGCGGA", "Category Label": "middle band"}
{"Input Sequence": "GAUUAGCAAUAUUACGUCGU", "Category Label": "middle band"}
{"Input Sequence": "UAAGAGCAAUAUUACGAGGU", "Category Label": "low band"}
{"Input Sequence": "GAGGAGCAAUAUUACGGGGU", "Category Label": "low band"}
{"Input Sequence": "AGGUAGCAAUAUUACGCGAG", "Category Label": "high band"}
{"Input Sequence": "CUCGAGCAAUAUUACGGUAU", "Category Label": "middle band"}
{"Input Sequence": "GUAUAGCAAUAUUACGUCGG", "Category Label": "low band"}
{"Input Sequence": "GUCCAGCAAUAUUACGAAGU", "Category Label": "high band"}
{"Input Sequence": "UGGCAGCAAUAUUACGCACA", "Category Label": "high band"}
{"Input Sequence": "CCUGAGCAAUAUUACGAUGC", "Category Label": "low band"}
{"Input Sequence": "UGCCAGCAAUAUUACGUUCC", "Category Label": "high band"}
{"Input Sequence": "UUGUAGCAAUAUUACGCCGG", "Category Label": "high band"}
{"Input Sequence": "CGCCAGCAAUAUUACGGUAU", "Category Label": "middle band"}
{"Input Sequence": "CCUGAGCAAUAUUACGGUUG", "Category Label": "low band"}
{"Input Sequence": "AACAAGCAAUAUUACGUAUA", "Category Label": "middle band"}
{"Input Sequence": "UCCAAGCAAUAUUACGAUGC", "Category Label": "middle band"}
